Biological target: MBP::FAX-1 (Caenorhabditis elegans)
Experiment: EMSA
Settings: EMSA: 1.5 ug MBP::FAX-1, 4 ng 32P ds oligo, BSA, 30 min pre-incubation + 30 min on ice, 8% native PAGE; binding buffer salt and pH not given
Label met when binding signal (% probe bound) is strictly below 10; otherwise label not met.

AATTACCCTTTTAAATGTCAAATGTCAACTTCCAA / TCGATTGGAAGTTGACATTTGACATTTAAAAGGGT [DR1T] :: not met
AATTACCCTTTTAAACGTCAAACGTCAACTTCCAA / TCGATTGGAAGTTGACGTTTGACGTTTAAAAGGGT [DR1C] :: not met
AATTACCCTTTTAAAATTCAAAATTCAACTTCCAA / TCGATTGGAAGTTGAATTTTGAATTTTAAAAGGGT [DRNC] :: met

**Query** Does this sequence meet the criterion binding signal (% probe bound) < 10? AATTACCCTTTTAAAAGTCAAAAGTCAACTTCCAA / TCGATTGGAAGTTGACTTTTGACTTTTAAAAGGGT [DR1A]
**Result** not met

**Query** Does this sequence meet the criterion binding signal (% probe bound) < 10? AATTACCCTTTTAAAAGTCAAAATTTAACTTCCAA / TCGATTGGAAGTTAAATTTTGACTTTTAAAAGGGT [MON1]
**Result** met

====

binding signal (% probe bound) values, listed per item
Biological target: MBP::FAX-1 (Caenorhabditis elegans) (UniProt G5EDJ0)
Sequence (G5EDJ0 whole entry): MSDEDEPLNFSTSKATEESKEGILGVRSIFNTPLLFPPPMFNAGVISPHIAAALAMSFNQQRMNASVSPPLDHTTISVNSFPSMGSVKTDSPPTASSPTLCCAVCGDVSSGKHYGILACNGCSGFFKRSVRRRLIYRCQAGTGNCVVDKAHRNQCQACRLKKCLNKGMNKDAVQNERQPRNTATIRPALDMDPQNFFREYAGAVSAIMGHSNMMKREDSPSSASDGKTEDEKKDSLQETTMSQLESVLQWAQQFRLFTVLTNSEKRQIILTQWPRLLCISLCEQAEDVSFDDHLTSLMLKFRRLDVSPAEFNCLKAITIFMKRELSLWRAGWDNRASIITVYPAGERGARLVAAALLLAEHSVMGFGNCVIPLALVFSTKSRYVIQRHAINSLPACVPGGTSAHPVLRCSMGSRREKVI
Test: EMSA
Conditions: EMSA: 1.5 ug MBP::FAX-1, 4 ng 32P ds oligo, BSA, 30 min pre-incubation + 30 min on ice, 8% native PAGE; binding buffer salt and pH not given
Form rule: numeric answer, no unit written next to it.

# annotated cases, reported binding signal (% probe bound) shown
AATTACCCTTTTAAAAGTCAAAATTCAACTTCCAA / TCGATTGGAAGTTGAATTTTGACTTTTAAAAGGGT [HRSW] :: 11.7
AATTACCCTTTTAAAATTCAAAAGTCAACTTCCAA / TCGATTGGAAGTTGACTTTTGAATTTTAAAAGGGT [HRWS] :: 10.5

With those in mind, consider the next sequence.
**Query** Item under review: AATTACCCTTTTAAAATTTAAAAGTCAACTTCCAA / TCGATTGGAAGTTGACTTTTAAATTTTAAAAGGGT [MON2] . Reported binding signal (% probe bound)?
**Result** 4.5
